Cited source: the Human Domainome abundance scans (Beltran et al. 2025)

B1: POU domain, class 2, transcription factor 1, residues 285 to 354; numbered along this chain, P14859 (parent)
chain: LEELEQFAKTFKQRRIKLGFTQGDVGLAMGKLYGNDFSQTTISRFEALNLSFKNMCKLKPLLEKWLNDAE

Variants of: B1
Experiment: abundance fitness (aPCA) (normalised: wild type 0, dead -1); higher = more abundant; growth selection in yeast, the domain comes from the species named
Details: Homo sapiens
The variants listed here are annotated with their abundance fitness.
property.label: abundance fitness

- variant.code: "F52T"
  property.label: "abundance fitness"
  recorded.value: 0.02
- variant.code: "N35H"
  property.label: "abundance fitness"
  recorded.value: 0.073
- variant.code: "F11W"
  property.label: "abundance fitness"
  recorded.value: -0.105
- variant.code: "L58H"
  property.label: "abundance fitness"
  recorded.value: -0.046
- variant.code: "K64G"
  property.label: "abundance fitness"
  recorded.value: -0.026
- variant.code: "E63D"
  property.label: "abundance fitness"
  recorded.value: -0.45
- variant.code: "Q39D"
  property.label: "abundance fitness"
  recorded.value: 0.008
- variant.code: "K12G"
  property.label: "abundance fitness"
  recorded.value: -0.146
- variant.code: "S43Y"
  property.label: "abundance fitness"
  recorded.value: -0.053
- variant.code: "S38K"
  property.label: "abundance fitness"
  recorded.value: -0.011
- variant.code: "K53N"
  property.label: "abundance fitness"
  recorded.value: 0.063
- variant.code: "T41W"
  property.label: "abundance fitness"
  recorded.value: -0.088
- variant.code: "L66S"
  property.label: "abundance fitness"
  recorded.value: -0.167
- variant.code: "G23Y"
  property.label: "abundance fitness"
  recorded.value: -0.028
- variant.code: "T10N"
  property.label: "abundance fitness"
  recorded.value: 0.004
- variant.code: "L50C"
  property.label: "abundance fitness"
  recorded.value: 0.007
- variant.code: "N49G"
  property.label: "abundance fitness"
  recorded.value: -0.002
- variant.code: "L48T"
  property.label: "abundance fitness"
  recorded.value: -0.004
- variant.code: "G30M"
  property.label: "abundance fitness"
  recorded.value: -0.024
- variant.code: "N49I"
  property.label: "abundance fitness"
  recorded.value: 0.025
- variant.code: "M55Y"
  property.label: "abundance fitness"
  recorded.value: -0.153
- variant.code: "L4S"
  property.label: "abundance fitness"
  recorded.value: -0.263
- variant.code: "I42W"
  property.label: "abundance fitness"
  recorded.value: -0.655
- variant.code: "Q22A"
  property.label: "abundance fitness"
  recorded.value: -0.014
- variant.code: "L48Q"
  property.label: "abundance fitness"
  recorded.value: 0.006
- variant.code: "F20Q"
  property.label: "abundance fitness"
  recorded.value: -0.038
- variant.code: "G26Y"
  property.label: "abundance fitness"
  recorded.value: -0.043
- variant.code: "S43C"
  property.label: "abundance fitness"
  recorded.value: -0.033
